- test_method_notes: Bi-directional permeability, CACO-2
- Type: in vitro ADME
- condition_set: human, Caco-2, pH 7, Caco-2, 10 μM, average of 2 replicates; read-out: Papp, A-to-B Avg
The entries below come with measured Papp A→B at 2 h, 10 µM values attached.
Quick note: give the figure in ×10⁻⁶ cm/s, leave out the unit.

compound: CCc1c(OC)cccc1C(=O)NN(C(=O)c1cc(C)cc(C)c1)C(C)(C)C [RG-102240]
Papp A→B at 2 h, 10 µM / ×10⁻⁶ cm/s: 31.8

Quick check: Papp A→B at 2 h, 10 µM of COc1cccc(C(=O)NN(C(=O)c2cc(C)cc(C)c2)C(C)(C)C)c1C [RG-102398] ? 26.9

---

- experimental_system: GAL4 DBD (1-147)-CfEcR(DEF)/VP16AD-βRXREF-LmUSPEF (Choristoneura fumiferana, UniProt O77240)
- test_method_notes: cell-based
- condition_set: 33 uM ligand; RLU ligand treated / RLU DMSO treated cells; average of two wells
experimental_readout: Fold Induction, 27-63 Assay, 33 uM
The answer should be a number; do not append a unit.

Quick check: Fold Induction, 27-63 Assay, 33 uM of "CCc1c(OC)cccc1C(=O)NN(C(=O)c1cc(C)cc(C)c1)C(C)(C)C=NNC(=O)C(N)=O" ? 2065

Quick check: Fold Induction, 27-63 Assay, 33 uM of CCCC(N(NC(=O)c1cccc(OC)c1C)C(=O)c1cc(C)cc(C)c1)C(C)(C)C (centres unmarked) ? 1025

Quick check: Fold Induction, 27-63 Assay, 33 uM of "COc1ccccc1C(=O)N(NC(=O)c1ccc2c(c1)OCCO2)C(C)(C)C" ? 1378

---

- experimental_system: GAL4 DBD-CfEcR(DEF)/VP16AD-MmRXRE (Choristoneura fumiferana)
- test_method_notes: 13B3 Assay (CHO stable cell line, luciferase reporter)
- condition_set: 3.3 uM ligand; RLU ligand treated / RLU DMSO treated cells; average of two wells
experimental_readout: Fold Induction, 13B3 Assay, 3.3 uM
The answer should be a number; do not append a unit.

Sample answers from the record:
compound: CCc1c(C(=O)NN(C(=O)c2cc(F)ccc2F)C(C)(C)C)ccc2c1OCCO2
experimental_system: GAL4 DBD-CfEcR(DEF)/VP16AD-MmRXRE (Choristoneura fumiferana)
Fold Induction, 13B3 Assay, 3.3 uM: 310
--
compound: Cc1cc(C)cc(C(=O)N(NC(=O)c2cccc([N+](=O)[O-])c2C)C(C)(C)C)c1
experimental_system: GAL4 DBD-CfEcR(DEF)/VP16AD-MmRXRE (Choristoneura fumiferana)
Fold Induction, 13B3 Assay, 3.3 uM: 133
--
compound: CCc1ccc(C(=O)NN(C(=O)c2cc(C)cc(C)c2)C(C)(C)C)cc1Cl
experimental_system: GAL4 DBD-CfEcR(DEF)/VP16AD-MmRXRE (Choristoneura fumiferana)
Fold Induction, 13B3 Assay, 3.3 uM: 5959
--
compound: CCc1c(OC)cccc1C(=O)NN(C(=O)c1cc(C)cc(C)c1)C(C)(C)C=NCCO
experimental_system: GAL4 DBD-CfEcR(DEF)/VP16AD-MmRXRE (Choristoneura fumiferana)
Fold Induction, 13B3 Assay, 3.3 uM: 1

Quick check: Fold Induction, 13B3 Assay, 3.3 uM of "Cc1c(C(=O)NN(C(=O)c2cc(F)cc(C(F)(F)F)c2)C(C)(C)C)ccc2c1OCCO2" ? 405

Quick check: Fold Induction, 13B3 Assay, 3.3 uM of "COc1cccc(C(=O)NN(C(=O)c2cc(C)cc(Br)c2)C(C)(C)C)c1C" ? 1347

Quick check: Fold Induction, 13B3 Assay, 3.3 uM of CCc1ccc(C(=O)NN(C(=O)c2cc(C)cc(C)c2)C(C)C(C)(C)C)cc1 (centres unmarked) ? 576

Quick check: Fold Induction, 13B3 Assay, 3.3 uM of Cc1c(C(=O)NN(C(=O)c2ccccc2[S+](C)[O-])C(C)(C)C)ccc2c1OCCO2 (centres unmarked) ? 2

Quick check: Fold Induction, 13B3 Assay, 3.3 uM of "COc1cc(Cl)ccc1C(=O)N(NC(=O)c1cccc(OC)c1C)C(C)(C)C" ? 3391

Quick check: Fold Induction, 13B3 Assay, 3.3 uM of "COc1ccc(C(=O)NN(C(=O)c2cc(Cl)cc(Cl)c2)C(C)(C)C)cc1" ? 25656

Quick check: Fold Induction, 13B3 Assay, 3.3 uM of "Cc1c(C(=O)NN(C(=O)c2cccc(F)c2)C(C)(C)C)ccc2c1OCCO2" ? 450

Quick check: Fold Induction, 13B3 Assay, 3.3 uM of "CCc1c(OC)cccc1C(=O)NN(C(=O)c1cc(OC)c(OC(C)=O)c(OC)c1)C(C)(C)C" ? 3

---

The entries below come with measured Papp, B-to-A Rep. 1 values attached.
- Test system: Caco-2 monolayers
- test_method_notes: Bi-directional permeability, CACO-2
- Type: in vitro ADME
- condition_set: Caco-2

molecule: CC(=O)c1ccc(C(=O)NN(C(=O)c2cc(C(=O)O)cc(C(=O)O)c2)C(C)(C)C)cc1 [RG-100150]
Papp, B-to-A Rep. 1: 0.33 10^−6 cm/s

Quick check: Papp, B-to-A Rep. 1 of CCc1c(OC)cccc1C(=O)NN(C(=O)c1ccccc1[S+](C)[O-])C(C)(C)C (stereo not shown) [RG-115199] ? 31.0 10^−6 cm/s

Quick check: Papp, B-to-A Rep. 1 of CCc1c(C(=O)NN(C(=O)c2ccc(F)c(C(F)(F)F)c2)C(C)(C)C)ccc2c1OCCO2 [RG-115280] ? 1.50 10^−6 cm/s

---

- experimental_system: GAL4 DBD-CfEcR(DEF)/VP16AD-MmRXRE (Choristoneura fumiferana, UniProt O77240)
- test_method_notes: 13B3 Assay (CHO stable cell line, luciferase reporter)
- condition_set: read-out: 13B3 EC50; CHO 13B3 stable cell line, luciferase reporter, 48 h; average of two wells
The entries below come with measured EC50 values attached.

Quick check: EC50 of Cc1cc(C)cc(C(=O)N(NC(=O)c2cccc(OC(C)C)c2C)C(C)(C)C)c1 [RG-101670] ? 646 nM

---

- test_method_notes: Bi-directional permeability, CACO-2
- Type: in vitro ADME
- condition_set: human, Caco-2, pH 7, Papp, B-to-A Rep. 1
experimental_readout: Papp B→A at 2 h, 10 µM (×10⁻⁶ cm/s)
Quick note: give the figure in ×10⁻⁶ cm/s, leave out the unit.

Sample answers from the record:
compound: Cc1cc(C)cc(C(=O)N(NC(=O)c2ccc3c(c2C)OCCO3)C(C)(C)C)c1
Papp B→A at 2 h, 10 µM (×10⁻⁶ cm/s): 21
//
compound: CCc1ccc(C(=O)NN(C(=O)c2cc(C)cc(C)c2)C(C)(C)C)c(F)c1
Papp B→A at 2 h, 10 µM (×10⁻⁶ cm/s): 23.6
//
compound: COc1ccc(C(=O)N(NC(=O)c2ccc3c(c2C)OCCO3)C(C)(C)C)c(OC)n1
Papp B→A at 2 h, 10 µM (×10⁻⁶ cm/s): 25.2
//
compound: COc1cccc(C(=O)NN(C(=O)c2cc(C)cc(C)c2)C(C)(C)C)c1C
Papp B→A at 2 h, 10 µM (×10⁻⁶ cm/s): 25.9

Now turn to the next compound.
Quick check: Papp B→A at 2 h, 10 µM of CCC(N(NC(=O)c1cccc(C)c1C)C(=O)c1cc(C)cc(C)c1)C(C)(C)C (centres unmarked) ? 32.5

---

- experimental_system: GAL4 DBD (1-147)-CfEcR(DEF)/VP16AD-βRXREF-LmUSPEF (Choristoneura fumiferana, UniProt O77240)
- test_method_notes: cell-based
- condition_set: 3.3 uM ligand; RLU ligand treated / RLU DMSO treated cells; average of two wells
experimental_readout: Fold Induction, 27-63 Assay, 3.3 uM
The answer should be a number; do not append a unit.

Sample answers from the record:
compound: CCc1c(OC)cccc1C(=O)NN(C(=O)c1ccc(Cl)cc1[N+](=O)[O-])C(C)(C)C
measurement: 817
--
compound: COc1cc(C(=O)N(NC(=O)c2cccc(OC)c2C)C(C)(C)C)c(=O)[nH]n1
measurement: 1
--
compound: Cc1cc(C)cc(C(=O)N(NC(=O)c2cc3c(cc2C)OCO3)C(C)(C)C)c1
measurement: 6

Quick check: Fold Induction, 27-63 Assay, 3.3 uM of CCCCC(N(NC(=O)c1ccc(CC)cc1)C(=O)c1cc(C)cc(C)c1)C(C)(C)C (centres unmarked) ? 1612

Quick check: Fold Induction, 27-63 Assay, 3.3 uM of "COc1cccc(C(=O)NN(C(=O)c2cc(C)ccc2[N+](=O)[O-])C(C)(C)C)c1C" ? 884

Quick check: Fold Induction, 27-63 Assay, 3.3 uM of "COc1ccccc1C(=O)N(NC(=O)c1ccc2c(c1)OCCO2)C(C)(C)C" ? 4

Quick check: Fold Induction, 27-63 Assay, 3.3 uM of CCc1ccc(C(=O)NN(C(=O)c2cc(C)cc(C)c2)C(C)C(C)(C)C)cc1 (centres unmarked) ? 3326

Quick check: Fold Induction, 27-63 Assay, 3.3 uM of "CCc1c(OC)cccc1C(=O)NN(C(=O)c1cc(C)cc(C)c1)C(C)(C)CO" ? 59

Quick check: Fold Induction, 27-63 Assay, 3.3 uM of "COc1cc(Cl)ccc1C(=O)N(NC(=O)c1cccc(OC)c1C)C(C)(C)C" ? 1181

Quick check: Fold Induction, 27-63 Assay, 3.3 uM of "COc1cccc(C(=O)NN(C(=O)c2cc(C)ccc2Cl)C(C)(C)C)c1Cl" ? 146

Quick check: Fold Induction, 27-63 Assay, 3.3 uM of "CCc1c(OC)cccc1C(=O)NN(C(=O)c1cc(C)cc(COC(C)=O)c1)C(C)(C)C" ? 273

Quick check: Fold Induction, 27-63 Assay, 3.3 uM of "Cc1c(C(=O)NN(C(=O)c2cc(F)cc(F)c2)C(C)(C)C)ccc2c1CCCO2" ? 1332

Quick check: Fold Induction, 27-63 Assay, 3.3 uM of "CCc1cccc(C(=O)NN(C(=O)c2cc(C)cc(C)c2)C(C)(C)C)c1C" ? 2249

Quick check: Fold Induction, 27-63 Assay, 3.3 uM of "CCc1c(OC)cccc1C(=O)NN(C(=O)c1c(F)cccc1F)C(C)(C)C" ? 2

Quick check: Fold Induction, 27-63 Assay, 3.3 uM of CCc1c(OC)cccc1C(=O)NN(C(=O)c1cc(OC)c(C)c(OC)c1)C(CC)C(C)(C)C (centres unmarked) ? 2063

Quick check: Fold Induction, 27-63 Assay, 3.3 uM of "Cc1ccc(F)c(C(=O)N(NC(=O)c2ccc3c(c2C)CCCO3)C(C)(C)C)c1" ? 2092

Quick check: Fold Induction, 27-63 Assay, 3.3 uM of "CCc1c(OC)cccc1C(=O)NN(C(=O)c1cc(C)cc(C)c1)C(C)(C)C=NCCO" ? 1
